Source listed as patent US20260055202A1.

# experimental.target: T1, human CD20 on Raji B lymphoma cells (human, UniProt P11836 1-297)
# T1 construct: whole, on cells; also called hCD20
# T1 sequence (looked up): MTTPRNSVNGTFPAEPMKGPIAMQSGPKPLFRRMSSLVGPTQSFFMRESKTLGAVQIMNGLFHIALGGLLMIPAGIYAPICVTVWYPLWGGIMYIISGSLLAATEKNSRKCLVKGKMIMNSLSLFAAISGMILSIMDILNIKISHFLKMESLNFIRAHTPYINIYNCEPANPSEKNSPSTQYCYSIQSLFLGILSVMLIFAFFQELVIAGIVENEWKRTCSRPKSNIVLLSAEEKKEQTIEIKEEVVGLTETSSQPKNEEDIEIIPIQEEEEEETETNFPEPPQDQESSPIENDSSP
# method.notes: flow cytometry on Raji cells, indirect immunofluorescence (Atto 488-labeled anti-human Fc secondary Ab), median fluorescence intensity
measure: MFI at 16.7 µg/mL

binder | measure | test.value
AC11 (chicken-derived anti-hCD20 mAb, chicken-human chimeric) (antibody, human IgG1, V domains shown, Atto 488 NHS-ester label on lysines in the direct immunofluorescence and mCD20 assays (positions not defined), Chicken VH fused to human CH1 and CH2-CH3 of human IgG1; chicken VL fused to human kappa constant domain; made in Expi293F cells; also called chAC11; parental AC11) VH: AVTLDESGGGLQTPGGALSLVCKASGFDFSSSYINWVRQAPGKGLEYVAQINKDGGGSWYAPVVKGRATISRDNGQSTVRLQLSNLRAEDTGIYFCAKNADSGCVGVGGCIDTWGHGTEVIVSS VL: ALTQPSSVSANPGETVKITCSGGSYYYGGNYYYGWYQQKSPGSAPVTLIYNNNKRPSDIPSRFSGSTSGSTGTLTITGVQADDEAVYYCGGYDSSYVAIFGAGTTLTVL | MFI at 16.7 µg/mL | 19000
